# Target entity: c-Kit kinase (Homo sapiens (Human), UniProt P10721)
# Sequence (P10721 26-976): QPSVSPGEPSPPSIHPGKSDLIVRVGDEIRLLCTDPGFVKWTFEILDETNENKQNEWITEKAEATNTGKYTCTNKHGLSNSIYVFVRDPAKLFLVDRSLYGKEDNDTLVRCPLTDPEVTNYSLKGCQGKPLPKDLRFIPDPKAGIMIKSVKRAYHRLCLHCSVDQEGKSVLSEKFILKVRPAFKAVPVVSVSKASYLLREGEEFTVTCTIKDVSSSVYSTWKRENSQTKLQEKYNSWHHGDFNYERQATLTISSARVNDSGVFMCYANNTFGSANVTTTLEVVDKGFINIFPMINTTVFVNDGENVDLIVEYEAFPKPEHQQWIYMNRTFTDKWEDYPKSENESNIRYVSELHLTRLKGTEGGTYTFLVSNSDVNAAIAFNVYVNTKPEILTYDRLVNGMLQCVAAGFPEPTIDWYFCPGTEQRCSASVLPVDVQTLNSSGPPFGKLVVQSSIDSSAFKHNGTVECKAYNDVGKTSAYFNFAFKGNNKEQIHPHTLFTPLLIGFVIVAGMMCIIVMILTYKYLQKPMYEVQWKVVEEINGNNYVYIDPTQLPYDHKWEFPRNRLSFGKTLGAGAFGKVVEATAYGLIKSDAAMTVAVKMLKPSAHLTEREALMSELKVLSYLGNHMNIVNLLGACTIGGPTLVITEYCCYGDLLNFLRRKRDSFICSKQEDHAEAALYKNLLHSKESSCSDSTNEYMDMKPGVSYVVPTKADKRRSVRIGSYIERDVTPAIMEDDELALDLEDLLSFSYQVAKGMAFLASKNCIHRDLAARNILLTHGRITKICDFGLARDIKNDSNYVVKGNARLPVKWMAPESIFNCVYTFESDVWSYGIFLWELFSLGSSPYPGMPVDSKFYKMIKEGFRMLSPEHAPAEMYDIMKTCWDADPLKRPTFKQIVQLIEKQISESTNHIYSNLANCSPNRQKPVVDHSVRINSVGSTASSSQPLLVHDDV
# Assay info: c-Kit biochemical assay (AlphaScreen kinase activity)
Each record here notes measured IC50.

IN: Give the reported value of IC50 for this record: Cc1nn(C)cc1-c1cc2c(N3CCC(c4nc(C)c(-c5ccc(OC(F)(F)F)cc5)[nH]4)CC3)ncnc2[nH]1 [P-3122]
OUT: 0.0001 to 1 µM

---
IN: Give the reported value of IC50 for this record: Cc1nc(C2CCN(c3ncnc4[nH]c(-c5ccc(F)cc5)cc34)CC2)[nH]c1-c1ccc2c(c1)OC(F)(F)O2 [P-3109]
OUT: 1 to 10 µM

----------
# Target entity: c-Kit kinase (Homo sapiens (Human))
# Assay info: c-Kit biochemical assay (AlphaScreen kinase activity)
# Description: Assays for biochemical cell-based activity of c-kit kinase are known in the art, for example, as described in U.S. Pat. Nos. 7,498,342 and 7,846,941, the disclosures of which are hereby incorporated by reference as it relates to such assays. […] IC50 values are determined with respect to inhibition of c-Kit kinase activity, where inhibition of phosphorylation of a peptide substrate is measured as a function of compound concentration. […]
Readout type: IC50

Would you please look over these solved cases?
IN: Consider the compound CNC(=O)c1ccc(-c2cc3c(N4CCC(C)(c5nc(C)c(-c6ccc(C(F)F)cc6)[nH]5)CC4)ncnc3[nH]2)cn1 tested on c-Kit kinase (Homo sapiens (Human)); state its IC50.
OUT: 0.0001 to 1 µM

IN: Consider the compound Cc1nc(C2CCN(c3ncnc4[nH]c(-c5ccc(C#N)cc5)cc34)CC2)[nH]c1-c1ccc2c(c1)OC(F)(F)O2 tested on c-Kit kinase (Homo sapiens (Human)); state its IC50.
OUT: 10 to 300 µM

---
IN: Consider the compound Cc1nc(C2CCN(c3ncnc4[nH]c(-c5ccc(F)cc5)cc34)CC2)[nH]c1-c1ccc2c(c1)OCO2 tested on c-Kit kinase (Homo sapiens (Human)); state its IC50.
OUT: 0.0001 to 1 µM

IN: Consider the compound Cc1nc(C2CCN(c3ncnc4[nH]c(-c5ccnc(C(F)(F)F)c5)cc34)CC2)[nH]c1-c1ccccc1 tested on c-Kit kinase (Homo sapiens (Human)); state its IC50.
OUT: 1 to 10 µM

----------
# Target entity: c-kit mutant D816V (Homo sapiens (Human), UniProt P10721, D816V/DEL694-753)
# Sequence (P10721 other isoform, or with tags, fused parts or gaps D816V/del 694-753): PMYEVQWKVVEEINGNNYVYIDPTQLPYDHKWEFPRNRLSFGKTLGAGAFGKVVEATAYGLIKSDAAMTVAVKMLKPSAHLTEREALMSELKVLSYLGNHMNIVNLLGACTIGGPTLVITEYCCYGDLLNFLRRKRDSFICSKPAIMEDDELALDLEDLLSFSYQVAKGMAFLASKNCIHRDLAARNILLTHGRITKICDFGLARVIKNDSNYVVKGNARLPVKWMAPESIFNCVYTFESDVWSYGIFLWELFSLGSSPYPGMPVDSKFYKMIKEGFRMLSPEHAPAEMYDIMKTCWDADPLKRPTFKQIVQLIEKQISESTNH
# Assay info: c-Kit mutant D816V biochemical assay (AlphaScreen kinase activity)
Each record here notes measured IC50.

IN: Give the reported value of IC50 for this record: COc1cccc(-c2[nH]c(C3CCN(c4ncnc5[nH]c(-c6cnn(C(F)F)c6)cc45)CC3)nc2C)c1
OUT: 0.0001 to 1 µM

IN: Give the reported value of IC50 for this record: CCOc1ccc(-c2[nH]c(C3(C)CCN(c4ncnc5[nH]c(-c6ccc(C(=O)NC)nc6)cc45)CC3)nc2C)cc1C
OUT: 0.0001 to 1 µM

IN: Give the reported value of IC50 for this record: CCOc1ccc(-c2[nH]c(C3CCN(c4ncnc5[nH]c(C)cc45)CC3)nc2C)cc1C
OUT: 1 to 10 µM

IN: Give the reported value of IC50 for this record: Cc1nc(C2CCN(c3ncnc4[nH]c(-c5ccc(C#N)cc5)cc34)CC2)[nH]c1-c1ccc2c(c1)OCCO2
OUT: 0.0001 to 1 µM

IN: Give the reported value of IC50 for this record: COc1ccc(-c2[nH]c(C3(C)CCN(c4ncnc5[nH]c(-c6ccnc(OC)c6)cc45)CC3)nc2C)cc1
OUT: 0.0001 to 1 µM

IN: Give the reported value of IC50 for this record: COc1cc(-c2cc3c(N4CCC(c5nc(C)c(-c6ccc(C)c(OC)c6)[nH]5)CC4)ncnc3[nH]2)ccn1
OUT: 0.0001 to 1 µM

IN: Give the reported value of IC50 for this record: COc1ccc(-c2[nH]c(C3CCN(c4ncnc5[nH]c(-c6ccc(F)cc6)cc45)CC3)nc2C)cc1C
OUT: 0.0001 to 1 µM

Source listed as patent US9771369B2.
